Here's a roundup of IC50 values tested on Aromatase (Homo sapiens, UniProt P11511), taken from various published works.
Sequence (P11511 whole entry): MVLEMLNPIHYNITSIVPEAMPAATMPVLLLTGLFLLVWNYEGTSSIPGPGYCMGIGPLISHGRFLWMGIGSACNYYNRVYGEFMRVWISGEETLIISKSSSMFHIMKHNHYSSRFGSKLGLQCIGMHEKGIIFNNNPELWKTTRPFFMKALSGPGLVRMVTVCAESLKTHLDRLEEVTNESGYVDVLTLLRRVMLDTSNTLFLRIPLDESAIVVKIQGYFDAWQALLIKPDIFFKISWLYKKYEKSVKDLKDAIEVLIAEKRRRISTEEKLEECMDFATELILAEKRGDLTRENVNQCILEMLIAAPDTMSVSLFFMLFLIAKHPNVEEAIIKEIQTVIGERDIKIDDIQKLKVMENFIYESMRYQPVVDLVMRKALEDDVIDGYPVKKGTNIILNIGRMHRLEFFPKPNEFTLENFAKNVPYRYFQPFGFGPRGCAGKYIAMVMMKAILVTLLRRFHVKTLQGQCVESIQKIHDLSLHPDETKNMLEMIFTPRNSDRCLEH
Give the number; µM is assumed, so skip it.

// worked examples, IC50 included
Cc1nn(-c2cncc([C@](C)(O)C(F)(F)F)c2)c2ccccc12; 6.3
N#Cc1cc(Cn2cncn2)cc(-c2ccc(OS(N)(=O)=O)cc2)c1; 0.28
O=C(/C=C/c1ccc(O)cc1)c1ccc(O)cc1O; 3.8
Fc1ccccc1CN(Cc1ccc(-c2ccccc2)cc1)n1ccnc1; 0.46
CC(C)(C)c1ccc(CN(Cc2ccc(Cl)cc2Cl)n2ccnc2)cc1; 1.52
N#Cc1ccc(-n2ccc3ccncc32)cc1Oc1ccccc1; 0.114
O=[N+]([O-])c1ccc(C(c2[nH]c3ccccc3c2CCNS(=O)(=O)c2ccc(F)cc2)c2[nH]c3ccccc3c2CCNS(=O)(=O)c2ccc(F)cc2)cc1; 3.5
COc1ccc(OCc2cn(Cc3ccccc3)nn2)cc1; 17.3
Fc1ccc(-c2[nH]c3cc4c(cc3c2Cn2ccnc2)OCO4)cc1; 0.211
O=c1cc(Cn2ccnc2)c2ccc(OCc3ccc([N+](=O)[O-])cc3)cc2o1; 0.387

Query string: Field request: IC50 | item: O=C1CCc2cc(-c3cccnc3)c(OCc3ccccc3)cc2N1
Result string: 0.035

Query string: Field request: IC50 | item: COc1ccc(-n2c(Cn3ccnc3)cc3ccccc32)cc1
Result string: 0.0774

Query string: Field request: IC50 | item: O=C1CCc2cc(C(c3ccccc3)c3ccncc3)cc3c2N1CC3 (centres undefined)
Result string: 0.88

Query string: Field request: IC50 | item: COc1ccc(-c2[nH]c3cc(Cl)ccc3c2Cn2cncn2)cc1
Result string: 0.196

Query string: Field request: IC50 | item: Cc1nn(-c2cncc(C(C)(C)O)c2)c2cccc(F)c12
Result string: 6.9

Query string: Field request: IC50 | item: CCCCCCCc1cn(C(c2ccccc2)c2ccccc2)nn1
Result string: 19.4

Query string: Field request: IC50 | item: Cc1ccccc1-c1cc2cc([N+](=O)[O-])ccc2[nH]1
Result string: 6.87

Query string: Field request: IC50 | item: CCCCCCc1cn(Cc2ccccc2)nn1
Result string: 7.47

Query string: Field request: IC50 | item: c1ccc(CC(Cc2ccc(-c3ccccc3)cc2)n2ccnc2)cc1 (centres undefined)
Result string: 0.95

Query string: Field request: IC50 | item: CC/C=C\C/C=C\C/C=C\C/C=C\C/C=C\CCCCCC(=O)O
Result string: 16.8

Query string: Field request: IC50 | item: c1ccc(C(c2ccccc2)n2cncn2)cc1
Result string: 1.1

----------
Here's a roundup of IC50 values tested on UniProtKB P11511, taken from various published works.

// worked examples, IC50 included
CC(C)=CCc1cc(C(=O)/C=C/c2ccc(O)c(O)c2)c(O)cc1O; > 118 µM
Fc1cc2c(cc1-c1cccnc1)CCc1nnc(Cc3ccccc3)n1-2; > 10 µM
O=C(c1ccccc1)c1nnc2n1-c1c(F)cc(-c3cccnc3)cc1CC2; > 10 µM
O=C(/C=C/c1ccc(O)cc1O)c1ccc(O)cc1O; > 147 µM
CC(C)(C(=O)c1cccnc1)c1cccnc1; > 5 µM

Query string: Requested read-out IC50, target or system UniProtKB P11511, entry O=c1cc(OCc2cn(-c3cccc(S(=O)(=O)N4CCc5ccccc5C4)c3)nn2)c2ccccc2o1
Result string: > 12.5 µM

Query string: Requested read-out IC50, target or system UniProtKB P11511, entry CC(C)=CCC/C(C)=C/Cc1c(O)cc2oc(-c3ccc(O)c(O)c3)c(O)c(=O)c2c1O
Result string: > 91.2 µM
